Reference source: patent US12161722B2

- assay target: WT BTK protein (Homo sapiens)
- Construct: measured for intracellular BTK protein levels by Western blotting; endogenous in cells; host or cells: TMD-8 or RAMOS cells
- assay text: BTK protein degradation assay (Western blotting), WT BTK
- Assay type: cell-based
- stated conditions: concentration range accounting for 50% degradation of WT BTK protein, TMD-8 or RAMOS cells, 24 hours
parameter measured: DC50

Cc1cccc(C)c1Nc1nn(C)c2nc(Nc3ccc4c(c3)CN(C(=O)C3CCN(C(=O)CNc5ccc6c(=O)n(C7CCC(=O)NC7=O)nnc6c5)CC3)CC4)ncc12 (stereo not drawn) [Compound 68]; 10 to 1000 nM

q: What value of DC50 has been recorded for this entry: COc1ccc(C(=O)N2CCC(CC(=O)N3CCc4ccc(Nc5ncc6c(Nc7c(C)cccc7C)nn(C)c6n5)cc4C3)CC2)cc1N1CCC(=O)NC1=O [Compound 112]
a: 1000 to 10000 nM

q: Next: Cc1cccc(C)c1Nc1nn(C)c2nc(Nc3ccc(N4CCN(C5CCN(c6ccc7c(c6)C(=O)N(C6CCC(=O)NC6=O)C7=O)CC5)CC4)nc3)ncc12 (stereo not drawn) [Compound 156]
a: 0.1 to 10 nM

====

- assay target: WT BTK protein (Homo sapiens)
- Construct: measured for intracellular BTK protein levels by Western blotting; endogenous in cells; host or cells: TMD-8 or RAMOS cells
- assay text: BTK protein degradation assay (Western blotting), WT BTK
- Format: cell-based
- stated conditions: concentration range accounting for 50% degradation of WT BTK protein, TMD-8 or RAMOS cells, 24 hours
parameter measured: DC50

Would you please look over these solved cases?
Cc1cccc(C)c1Nc1nn(C)c2nc(Nc3ccc4c(c3)CN(C(=O)CNc3ccc5c(c3)CN(C3CCC(=O)NC3=O)C5=O)CC4)ncc12 (stereo not drawn); 0.1 to 10 nM
Cc1cccc(C)c1Nc1nn(C)c2nc(Nc3ccc4c(c3)CN(C3CN(C[C@@H]5[C@H]6CN(c7ccc8c(c7)C(=O)N(C7CCC(=O)NC7=O)C8=O)C[C@@H]56)C3)CC4)ncc12 (stereo partly drawn); 0.1 to 10 nM
Cc1cccc(C)c1Nc1nn(C)c2nc(Nc3ccc4c(c3)CN(C(=O)C3(F)CCN(c5cc6c(cc5F)C(=O)N(C5CCC(=O)NC5=O)C6=O)CC3)CC4)ncc12 (stereo not drawn); 0.1 to 10 nM

q: What value of DC50 has been recorded for this entry: Cc1cccc(C)c1Nc1nn(C)c2nc(Nc3ccc4c(c3)CCN(C[C@H]3CCN(c5ccc6c(c5)C(=O)N(C5CCC(=O)NC5=O)C6=O)C3)C4)ncc12 (stereo partly drawn)
a: 0.1 to 10 nM

q: Next: Cc1cccc(C)c1Nc1nn(C)c2nc(Nc3ccc4c(c3)CN(C(=O)COCCOCCNc3cccc5c3C(=O)N(C3CCC(=O)NC3=O)C5=O)CC4)ncc12 (stereo not drawn)
a: 0.1 to 10 nM

q: Next: Cc1cccc(C)c1Nc1nn(C)c2nc(Nc3ccc4c(c3)CCN(CC3CCN(C(=O)CNc5ccc6c(c5)C(=O)N(C5CCC(=O)NC5=O)C6=O)CC3)C4)ncc12 (stereo not drawn)
a: 0.1 to 10 nM

q: Next: Cc1cccc(C)c1Nc1nn(C)c2nc(Nc3ccc(C4CCN(C(=O)C5CN(c6ccc7c(c6)C(=O)N(C6CCC(=O)NC6=O)C7=O)C5)CC4)cc3)ncc12 (stereo not drawn)
a: 0.1 to 10 nM

====

- assay target: C481S BTK protein (Homo sapiens, UniProt Q06187, C481S)
- Construct: expressed in transfected cells; host or cells: 293T BTK MUT (C481S) cells
- Sequence (Q06187 whole entry C481S): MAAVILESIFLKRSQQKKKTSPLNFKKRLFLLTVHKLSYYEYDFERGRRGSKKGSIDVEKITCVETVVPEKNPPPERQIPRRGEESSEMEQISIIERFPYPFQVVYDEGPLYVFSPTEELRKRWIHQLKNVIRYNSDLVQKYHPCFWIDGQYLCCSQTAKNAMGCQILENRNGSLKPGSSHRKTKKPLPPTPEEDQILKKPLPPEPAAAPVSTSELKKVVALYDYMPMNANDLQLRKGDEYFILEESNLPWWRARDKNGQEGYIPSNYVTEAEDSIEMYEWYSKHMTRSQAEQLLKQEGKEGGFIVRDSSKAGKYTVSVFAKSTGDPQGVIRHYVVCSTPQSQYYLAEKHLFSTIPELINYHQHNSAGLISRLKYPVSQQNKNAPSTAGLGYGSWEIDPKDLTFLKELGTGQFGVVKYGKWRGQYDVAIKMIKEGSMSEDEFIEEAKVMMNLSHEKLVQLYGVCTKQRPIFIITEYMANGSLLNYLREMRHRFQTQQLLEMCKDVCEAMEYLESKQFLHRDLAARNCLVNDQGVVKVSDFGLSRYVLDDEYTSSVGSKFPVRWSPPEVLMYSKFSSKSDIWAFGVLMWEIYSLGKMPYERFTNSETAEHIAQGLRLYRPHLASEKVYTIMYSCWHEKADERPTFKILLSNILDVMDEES
- assay text: BTK protein degradation assay (Western blotting), C481S BTK
- Format: cell-based
- stated conditions: concentration range accounting for 50% degradation of C481S BTK protein, 293T BTK MUT (C481S) cells
parameter measured: DC50

Would you please look over these solved cases?
Cc1cccc(C)c1Nc1nn(C)c2nc(Nc3ccc4c(c3)CN(C(=O)CCOCCOCCOCCOCCNC(=O)CNc3ccc5c(c3)C(=O)N(C3CCC(=O)NC3=O)C5=O)CC4)ncc12 (centres unmarked); > 10000 nM
Cc1cccc(C)c1Nc1nn(C)c2nc(Nc3ccc4c(c3)CN(C(=O)COCCOCCOCCOCCNc3ccc5c(c3)C(=O)N(C3CCC(=O)NC3=O)C5=O)CC4)ncc12 (centres unmarked); 10 to 1000 nM
Cc1cccc(C)c1Nc1nn(C)c2nc(Nc3ccc4c(c3)CN(C(=O)C3CCN(c5ccc6c(c5)C(=O)N(C5CCC(=O)NC5=O)C6=O)CC3)CC4)ncc12 (centres unmarked); 10 to 1000 nM
Cc1cccc(C)c1Nc1nn(C)c2nc(Nc3ccc4c(c3)CN(C(=O)C3CCN(c5cccc6nnn(C7CCC(=O)NC7=O)c(=O)c56)CC3)CC4)ncc12 (centres unmarked); 1000 to 10000 nM

q: What value of DC50 has been recorded for this entry: Cc1cccc(C)c1Nc1nn(C)c2nc(Nc3ccc4c(c3)CN(Cc3cn(CCOCCOCCNC(=O)CNc5ccc6c(c5)C(=O)N(C5CCC(=O)NC5=O)C6=O)nn3)CC4)ncc12 (centres unmarked)
a: > 10000 nM

q: Next: Cc1cccc(C)c1Nc1nn(C)c2nc(Nc3ccc4c(c3)CN(CC3CCN(c5ccc6c(=O)n(C7CCC(=O)NC7=O)nnc6c5)CC3)CC4)ncc12 (centres unmarked)
a: 10 to 1000 nM

q: Next: Cc1cccc(C)c1Nc1nn(C)c2nc(Nc3ccc4c(c3)CN(CCOCCNC(=O)C3CCN(c5ccc6c(c5)C(=O)N(C5CCC(=O)NC5=O)C6=O)CC3)CC4)ncc12 (centres unmarked)
a: 1000 to 10000 nM

q: Next: Cc1cccc(C)c1Nc1nn(C)c2nc(Nc3ccc4c(c3)CN(C(=O)CCCCCCCCCCCNc3cccc5c3C(=O)N(C3CCC(=O)NC3=O)C5=O)CC4)ncc12 (centres unmarked)
a: > 10000 nM

q: Next: Cc1cccc(C)c1Nc1nn(C)c2nc(Nc3ccc4c(c3)CN(C(=O)COCCOCCOCCOCCNC(=O)CNc3cccc5c3C(=O)N(C3CCC(=O)NC3=O)C5=O)CC4)ncc12 (centres unmarked)
a: > 10000 nM

q: Next: Cc1cccc(C)c1Nc1nn(C)c2nc(Nc3ccc4c(c3)CN(C(=O)[C@H]3CCCN3C(=O)CN3CCN(c5ccc6c(c5)C(=O)N(C5CCC(=O)NC5=O)C6=O)CC3)CC4)ncc12 (some centres unmarked)
a: 1000 to 10000 nM

q: Next: Cc1cccc(C)c1Nc1nn(C)c2nc(Nc3ccc4c(c3)CN(C(=O)C3CCN(C(=O)C5CCN(c6ccc7c(=O)n(C8CCC(=O)NC8=O)nnc7c6)CC5)CC3)CC4)ncc12 (centres unmarked)
a: 10 to 1000 nM

====

- assay target: WT BTK protein (Homo sapiens)
- Construct: measured for intracellular BTK protein levels by Western blotting; endogenous in cells; host or cells: TMD-8 or RAMOS cells
- assay text: BTK protein degradation assay (Western blotting), WT BTK
- Type: cell-based
- stated conditions: concentration range accounting for 50% degradation of WT BTK protein, TMD-8 or RAMOS cells, 24 hours
parameter measured: DC50

Cc1cccc(C)c1Nc1nn(C)c2nc(Nc3ccc4c(c3)CN(CC3CCN(C(=O)c5ccc6c(c5)CN(C5CCC(=O)NC5=O)C6=O)CC3)CC4)ncc12 (centres unmarked); 0.1 to 10 nM

q: What value of DC50 has been recorded for this entry: Cc1cccc(C)c1Nc1nn(C)c2nc(Nc3ccc(N4CCN(CC5CN(c6ccc7c(c6)C(=O)N(C6CCC(=O)NC6=O)C7=O)C5)CC4)nc3)ncc12 (centres unmarked)
a: 0.1 to 10 nM

q: Next: Cc1cccc(C)c1Nc1nn(C)c2nc(Nc3ccc4c(c3)CN(C(=O)Cc3cccc(NC5=CC(=O)N(C6CCC(=O)NC6=O)C5=O)c3)CC4)ncc12 (centres unmarked)
a: 10 to 1000 nM

q: Next: Cc1cccc(C)c1Nc1nn(C)c2nc(Nc3ccc4c(c3)CN(C(=O)CCOCCOCCOCCOCCNC(=O)CN3CCN(c5ccc6c(c5)C(=O)N(C5CCC(=O)NC5=O)C6=O)CC3)CC4)ncc12 (centres unmarked)
a: 0.1 to 10 nM

q: Next: Cc1cccc(C)c1Nc1nn(C)c2nc(Nc3ccc4c(c3)CN(C(=O)CCOCCOCCOCCOCCNC(=O)COc3cccc5c3C(=O)N(C3CCC(=O)NC3=O)C5=O)CC4)ncc12 (centres unmarked)
a: 0.1 to 10 nM

====

- assay target: WT BTK protein (Homo sapiens, UniProt Q06187)
- Construct: measured for intracellular BTK protein levels by Western blotting; endogenous in cells; host or cells: TMD-8 or RAMOS cells
- assay text: BTK protein degradation assay (Western blotting), WT BTK
- Format: cell-based
- stated conditions: concentration range accounting for 50% degradation of WT BTK protein, TMD-8 or RAMOS cells, 24 hours
parameter measured: DC50

Cc1cccc(C)c1Nc1nn(C)c2nc(Nc3ccc(N4CCN(C[C@@H]5CCCN(c6ccc7c(c6)C(=O)N(C6CCC(=O)NC6=O)C7=O)C5)CC4)nc3)ncc12 (some centres unmarked); 0.1 to 10 nM
Cc1cccc(C)c1Nc1nn(C)c2nc(Nc3ccc4c(c3)CN(CC(=O)Nc3ccc5c(c3)CN(C3CCC(=O)NC3=O)C5=O)CC4)ncc12 (centres unmarked); 0.1 to 10 nM

q: What value of DC50 has been recorded for this entry: Cc1cccc(C)c1Nc1nn(C)c2nc(Nc3ccc4c(c3)CN(C(=O)COCCOCCOCCOCCNC(=O)COc3ccc5c(c3)C(=O)N(C3CCC(=O)NC3=O)C5=O)CC4)ncc12 (centres unmarked)
a: 10 to 1000 nM

q: Next: Cc1cc(NC(=O)c2cccc(C(F)(F)F)c2)ccc1Nc1nn(C)c2nc(Nc3ccc4c(c3)CN(CC3CCN(c5ccc6c(c5)C(=O)N(C5CCC(=O)NC5=O)C6=O)CC3)CC4)ncc12 (centres unmarked)
a: 10 to 1000 nM

q: Next: Cc1cccc(C)c1Nc1nn(C)c2nc(Nc3ccc(C4CCN(CC5CCN(c6ccc7c(c6)C(=O)N(C6CCC(=O)NC6=O)C7=O)CC5)CC4)cc3F)ncc12 (centres unmarked)
a: 10 to 1000 nM
